# growth values compiled below
System: TK-10 renal
test: NCI-60 one-dose screen, 48 h (100 = growth as untreated, 0 = no growth, -100 = all killed)
run_conditions: 10 µM
Compounds without any hit were thinned out: in the full panel of roughly 83,000, 20% have a hit. Calls of active or inactive are those of the source. The calls were made as follows: active = growth percent below 10; inactive = the rest.

// query What growth value was documented for this compound, OC(CN1CCCC2CCCCC21)c1cc2ccccc2c2ccccc12 (stereo not given) ?
// result 52.6% (inactive)

// query What growth value was documented for this compound, CC1=CC(C)=Nc2ccc(Cl)cc2N1 ?
// result 117% (inactive)

// query What growth value was documented for this compound, Clc1cc(Cl)c(Cl)nn1 ?
// result 146% (inactive)

// query What growth value was documented for this compound, COc1ccc(CC(=O)c2ccc(O)cc2O)cc1 ?
// result 122% (inactive)

// query What growth value was documented for this compound, CCC(C)(C)c1cc(O)c(C(C)(C)CC)cc1O ?
// result 63.2% (inactive)

// query What growth value was documented for this compound, OCC(O)C(O)C(O)C(/C=N/Nc1ccccc1)=N/Nc1ccccc1 (stereo not given) ?
// result 91.8% (inactive)

// query What growth value was documented for this compound, CN1CCN(CCCN2c3ccccc3Sc3ccc(C(F)(F)F)cc32)CC1 ?
// result 66% (inactive)

// query What growth value was documented for this compound, CC(=O)OCC(OC(C)=O)C(OC(C)=O)C(OC(C)=O)C(OC(C)=O)C(/C=N/Nc1ccccc1)=N/Nc1ccccc1 (stereo not given) ?
// result 91.2% (inactive)

// query What growth value was documented for this compound, COc1c(O)cc2oc3cc(O)c(CC=C(C)C)c(O)c3c(=O)c2c1CC=C(C)C ?
// result 89.1% (inactive)

// query What growth value was documented for this compound, O=C(/C=C/c1cccnc1)c1ccccc1 ?
// result 93.9% (inactive)

// query What growth value was documented for this compound, CCCCCCCCCCSC(=N)N ?
// result 60% (inactive)

// query What growth value was documented for this compound, COC(=O)C1C(O)C(C)C(O)C(C)C=C(C)C2=C3C(=C(C)C(=O)c4c(O)c(c(C)c(OC(C)=O)c43)NC(=O)C(C)=C/C=C\C(C)C(O)C(C)C1O)OCO2 (stereo not given) ?
// result 118% (inactive)

// query What growth value was documented for this compound, O=C(O)COc1ccc(OCC(=O)O)cc1 ?
// result 20.6% (inactive)

// query What growth value was documented for this compound, COc1cccc2c1C(=O)c1c(O)c3c(c(O)c1C2=O)C[C@@](O)(C(=O)CO)C[C@@H]3OC1CC(N)C(O)C(C)O1 (stereo not given in full) ?
// result 25.4% (inactive)

// query What growth value was documented for this compound, CS(=O)(=O)OC1CC(n2ccc(=O)[nH]c2=O)OC1COC(c1ccccc1)(c1ccccc1)c1ccccc1 (stereo not given) ?
// result 105% (inactive)

// query What growth value was documented for this compound, CCN1/C(=C/C=C/C=C/c2sc3ccccc3[n+]2CC)Sc2ccccc21 ?
// result -6.28% (active)

// query What growth value was documented for this compound, NC(=O)SCC(=O)NNc1ccccc1 ?
// result 95.5% (inactive)

// query What growth value was documented for this compound, Cc1nc(N=C(N)N)nc2ccc3ccccc3c12 ?
// result 3.86% (active)

// query What growth value was documented for this compound, Clc1ccc(/C=C/c2ccccn2)c(Cl)c1 ?
// result 98% (inactive)

// query What growth value was documented for this compound, CSC1SCC2C(=O)N(C)C(C(C)C)C(=O)OCC(NC(=O)c3cnc4ccccc4n3)C(=O)NC(C)C(=O)N(C)C1C(=O)N(C)C(C(C)C)C(=O)OCC(NC(=O)c1cnc3ccccc3n1)C(=O)NC(C)C(=O)N2C (stereo not given) ?
// result 20.1% (inactive)

---

System: SF-539 CNS
test: NCI-60 one-dose screen, 48 h (100 = growth as untreated, 0 = no growth, -100 = all killed)
run_conditions: 10 µM
Compounds without any hit were thinned out: in the full panel of roughly 83,000, 20% have a hit. Calls of active or inactive are those of the source. How the source made its calls: active means growth percent below 10; inactive means the rest.
# growth values compiled below

Solved cases below.
* Clc1ccc(/C=C/c2ccccn2)c(Cl)c1 | 89.3% (inactive)
* O=C1C=C(O)c2ccccc2C1=O.[Ag] | 114% (inactive)
* OCC(O)C(O)C(O)C(/C=N/Nc1ccccc1)=N/Nc1ccccc1 (centres undefined) | 91.3% (inactive)

Continue with the compound presented below.
// query What growth value was documented for this compound, NC1=C(Cl)C(=O)c2ccccc2C1=O ?
// result 75.4% (inactive)

---

System: MALME-3M melanoma
test: NCI-60 one-dose screen, 48 h (100 = growth as untreated, 0 = no growth, -100 = all killed)
run_conditions: 10 µM
This is part of a sample that, as a whole, favours compounds with a hit. Of some 83,000 tested, about 20% had one in any assay.
Assign Fulfilled whenever growth does not fall below 90%; assign Not fulfilled whenever it does.

Illustrative cases are given below, each with its answer.
* O=C(/C=C/c1cccnc1)c1ccccc1 | Fulfilled
* O=[N+]([O-])C1=C(c2ccccc2)SC=C(c2ccccc2)S1 | Not fulfilled
* CC(=O)Nc1cc(C)ccc1C | Fulfilled
* CCN(CC)c1ccc(NC(C(=O)c2ccccc2)c2ccccc2)cc1 (configuration not stated) | Not fulfilled
* NC1=C(Cl)C(=O)c2ccccc2C1=O | Not fulfilled
* Clc1cc(Cl)c(Cl)nn1 | Fulfilled

// query hey, is growth for this one >= 90%? CO[C@H](C(=O)[C@@H](O)[C@@H](C)O)[C@@H]1Cc2cc3cc(OC4CC(OC5CC(O)C(O)C(C)O5)C(O)C(C)O4)c(C)c(O)c3c(O)c2C(=O)[C@H]1OC1CC(OC2CC(OC3CC(C)(O)C(O)C(C)O3)C(O)C(C)O2)C(O)C(C)O1 (some centres not stated)
// result Not fulfilled

// query hey, is growth for this one >= 90%? CCC(C)(C)c1cc(O)c(C(C)(C)CC)cc1O
// result Fulfilled

// query hey, is growth for this one >= 90%? COC(=O)C1C(O)C(C)C(O)C(C)C=C(C)C2=C3C(=C(C)C(=O)c4c(O)c(c(C)c(OC(C)=O)c43)NC(=O)C(C)=C/C=C\C(C)C(O)C(C)C1O)OCO2 (configuration not stated)
// result Fulfilled

// query hey, is growth for this one >= 90%? CSC1SCC2C(=O)N(C)C(C(C)C)C(=O)OCC(NC(=O)c3cnc4ccccc4n3)C(=O)NC(C)C(=O)N(C)C1C(=O)N(C)C(C(C)C)C(=O)OCC(NC(=O)c1cnc3ccccc3n1)C(=O)NC(C)C(=O)N2C (configuration not stated)
// result Not fulfilled

// query hey, is growth for this one >= 90%? COc1cccc2c1C(=O)c1c(O)c3c(c(O)c1C2=O)C[C@@](O)(C(=O)CO)C[C@@H]3OC1CC(N)C(O)C(C)O1 (some centres not stated)
// result Not fulfilled

// query hey, is growth for this one >= 90%? CCCCCCCCCCSC(=N)N
// result Not fulfilled

---

System: HOP-92 NSCLC
test: NCI-60 one-dose screen, 48 h
run_conditions: 10 µM
About 83,000 compounds went through this panel and 20% of them were active in at least one assay; those are over-represented in the sample as a whole. The source made the active and inactive calls. The calls were made as follows: active = growth percent below 10; inactive = the rest. Where a SMILES comes first, the peptide text is derived from it. [ ]: non-standard residue; d: D form. ξ: configuration not given here. ξV = CC(C)C(N)C(=O)O
# output must be one of class 1 = active, class 0 = inactive

// query Just curious, what result did CC(C)C(NC(=O)CN)C(=O)O (stereo not drawn) (H-Gly-[ξV]-OH) get here?
// result class 0

// query Just curious, what result did O=C(/C=C/c1cccnc1)c1ccccc1 get here?
// result class 0

// query Just curious, what result did OCC(O)C(O)C(O)C(/C=N/Nc1ccccc1)=N/Nc1ccccc1 (stereo not drawn) get here?
// result class 0

// query Just curious, what result did OC(CN1CCCC2CCCCC21)c1cc2ccccc2c2ccccc12 (stereo not drawn) get here?
// result class 0

// query Just curious, what result did CC(=O)Nc1cc(C)ccc1C get here?
// result class 0

// query Just curious, what result did O=[N+]([O-])C1=C(c2ccccc2)SC=C(c2ccccc2)S1 get here?
// result class 0

---

Tested on: CCRF-CEM leukemia
test: NCI-60 one-dose screen, 48 h
run_conditions: 10 µM
About 83,000 compounds went through this panel and 20% of them were active in at least one assay; those are over-represented in the sample as a whole. The source made the active and inactive calls. The calls were made as follows: active = growth percent below 10; inactive = the rest.
# output must be one of active, inactive

Illustrative cases are given below, each with its answer.
- NC(=O)SCC(=O)NNc1ccccc1: inactive
- COC(=O)C1C(O)C(C)C(O)C(C)C=C(C)C2=C3C(=C(C)C(=O)c4c(O)c(c(C)c(OC(C)=O)c43)NC(=O)C(C)=C/C=C\C(C)C(O)C(C)C1O)OCO2 (stereo not given): inactive
- CSC1SCC2C(=O)N(C)C(C(C)C)C(=O)OCC(NC(=O)c3cnc4ccccc4n3)C(=O)NC(C)C(=O)N(C)C1C(=O)N(C)C(C(C)C)C(=O)OCC(NC(=O)c1cnc3ccccc3n1)C(=O)NC(C)C(=O)N2C (stereo not given): active
- Cc1nc(N=C(N)N)nc2ccc3ccccc3c12: active

API: the following record is the query input.
// query Just curious, what result did COc1cccc2c1C(=O)c1c(O)c3c(c(O)c1C2=O)C[C@@](O)(C(C)=O)C[C@@H]3OC1CC(N)C(O)C(C)O1 (stereo not given in full) get here?
// result active

Reference for the values: PubChem BioAssay (NCI)
